ASSAY: Distribution coefficient, log D of the compound at pH 7.4
EXPERIMENTAL_SETUP: octanol/water
OUTCOME_MEASURE: logD
# output: bare number, no unit

Task item: So what's the measured logD for this one? COc1ccc(NC(=N)c2cccs2)cc1CSC1CCCC1
Reply: 3.3

Task item: So what's the measured logD for this one? C/N=C(/Nc1ccc(OC)c(CSC2CCCC2)c1)c1cccs1
Reply: 3.1

Task item: So what's the measured logD for this one? COc1ccc(NC(=N)c2ccccc2)cc1C[S+]([O-])C1CCCC1 (stereo unspecified)
Reply: 0.8

Task item: So what's the measured logD for this one? COc1ccc(NC(=N)c2ccsc2)cc1CSC1CCCC1
Reply: 2.5

Task item: So what's the measured logD for this one? COc1ccc(NC(=N)c2ccc(Cl)cc2)cc1CSC1CCCC1
Reply: 3.7

Task item: So what's the measured logD for this one? COc1ccc(NC(=N)c2ccccc2)cc1CSC1CCCC1
Reply: 2.5

Task item: So what's the measured logD for this one? COc1ccc(NC(=N)c2ccccc2)cc1CCC1CCCC1
Reply: 3.8

###

TEST_TARGET: UniProt:Q96P65
ASSAY: Antagonist activity at human GPR103 receptor assessed as inhibition of inositol-1-phosphate production by cell-based assay
Assay type: functional
OUTCOME_MEASURE: pIC50
Scale note: pIC50 = -log10(concentration in M).

Task item: So what's the measured pIC50 for this one? COc1ccc(NC(=N)c2cc(C)cs2)cc1CSC1CCCC1
Reply: 7.20

Task item: So what's the measured pIC50 for this one? Cc1cc2nc(NC(=N)N)nc(C)c2cc1C
Reply: 5.60

Task item: So what's the measured pIC50 for this one? COc1ccc(NC(=N)c2ccc(Br)s2)cc1CSC1CCCC1
Reply: 7.70

Task item: So what's the measured pIC50 for this one? C/N=C(/Nc1ccc(OC)c(CSC2CCCC2)c1)c1cccs1
Reply: 6.60

Task item: So what's the measured pIC50 for this one? N=C(Nc1ccc(OC(F)(F)F)c(CSC2CCCC2)c1)c1cccs1
Reply: 5.70

Task item: So what's the measured pIC50 for this one? N=C(Nc1ccc(Cl)c(CSC2CCCC2)c1)c1cccs1
Reply: 6.00

Task item: So what's the measured pIC50 for this one? COc1ccc(NC(=N)c2ccsc2)cc1CSC1CCCC1
Reply: 7.00

###

TEST_TARGET: Pyroglutamylated RF-amide peptide receptor (Homo sapiens, UniProt Q96P65)
Sequence (Q96P65 whole entry): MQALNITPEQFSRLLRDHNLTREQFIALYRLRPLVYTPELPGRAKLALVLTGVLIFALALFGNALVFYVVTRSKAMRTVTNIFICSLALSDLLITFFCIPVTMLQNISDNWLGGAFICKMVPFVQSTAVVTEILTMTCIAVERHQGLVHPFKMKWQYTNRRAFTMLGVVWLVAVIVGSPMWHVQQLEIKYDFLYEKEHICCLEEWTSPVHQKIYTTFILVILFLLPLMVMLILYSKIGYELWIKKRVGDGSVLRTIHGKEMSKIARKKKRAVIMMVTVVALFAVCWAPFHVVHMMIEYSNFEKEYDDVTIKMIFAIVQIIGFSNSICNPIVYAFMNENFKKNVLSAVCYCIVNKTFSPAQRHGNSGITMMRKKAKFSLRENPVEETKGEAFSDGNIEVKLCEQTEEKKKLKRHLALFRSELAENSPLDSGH
ASSAY: Antagonist activity at human GPR103 receptor assessed as inhibition of inositol-1-phosphate production by cell-based assay
Type: functional
pIC50: −log10 of the molar value.
OUTCOME_MEASURE: pIC50

Task item: So what's the measured pIC50 for this one? CCC(=N)Nc1ccc(OC)c(CSC2CCCC2)c1
Reply: < 4.40

Task item: So what's the measured pIC50 for this one? C/N=C(\c1cccs1)N(C)c1ccc(OC)c(CSC2CCCC2)c1
Reply: < 4.40

Task item: So what's the measured pIC50 for this one? COc1ccc(NC(=N)c2ccccc2)cc1C[S+]([O-])C1CCCC1 (stereo not drawn)
Reply: < 4.40

###

ASSAY: Distribution coefficient, log D of the compound at pH 7.4
EXPERIMENTAL_SETUP: octanol/water
Assign logD to each entry below.

Task item: So what's the measured logD for this one? COc1ccc(NC(=O)c2cccs2)cc1CSC1CCCC1
Reply: > 4.2

Task item: So what's the measured logD for this one? Cc1cc2nc(NC(=N)N)nc(C)c2cc1C
Reply: < 0.6

Task item: So what's the measured logD for this one? N=C(Nc1ccc(OC(F)(F)F)c(CSC2CCCC2)c1)c1cccs1
Reply: > 4.8

Task item: So what's the measured logD for this one? N=C(Nc1ccc(F)c(CSC2CCCC2)c1)c1cccs1
Reply: > 3.9
